molecular target: Ornithine decarboxylase (Rattus norvegicus, UniProt P09057)
Sequence (P09057 whole entry): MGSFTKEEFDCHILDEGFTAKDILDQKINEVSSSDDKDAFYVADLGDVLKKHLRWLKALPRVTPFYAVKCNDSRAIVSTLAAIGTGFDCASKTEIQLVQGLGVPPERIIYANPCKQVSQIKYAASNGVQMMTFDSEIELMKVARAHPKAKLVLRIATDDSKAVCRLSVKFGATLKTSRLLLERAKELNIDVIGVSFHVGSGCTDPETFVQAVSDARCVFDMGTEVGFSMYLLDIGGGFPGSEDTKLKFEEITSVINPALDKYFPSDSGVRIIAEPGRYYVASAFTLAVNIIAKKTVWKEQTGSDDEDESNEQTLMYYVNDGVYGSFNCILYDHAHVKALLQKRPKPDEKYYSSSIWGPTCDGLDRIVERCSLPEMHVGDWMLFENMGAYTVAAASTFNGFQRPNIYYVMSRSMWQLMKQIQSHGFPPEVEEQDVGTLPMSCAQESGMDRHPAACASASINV
measure_name: Ki
Returns: string containing the number followed by the unit.

NCCCC(N)(CF)C(=O)O (stereo unspecified) has a reported Ki of 2700 nM
